Reference source: ChEMBL document CHEMBL1121849

# methodNotes: In vivo antidiuretic antagonistic activity expressed as negative logarithm of the effective dose divided by the estimated volume of distribution (67 mL/kg).
# Type: ADME, organism-based
# experimentalContext: Urine; read-out: pA2 (converted)
Starred links: 1 amine or outer side, 2 acyl side, 3 side chain; linkers in the order of their positions; H or OH if unused. Positions of bridges follow the written chain, without caps; N, C: chain ends. Non-standard residues stand in square brackets, D forms with d. Residues, ends and D or L forms follow the SMILES beside them. *: point of attachment. X1 = O=C(CC1(S[*:2])CCCCC1)[*:1]; iPr = CC(C)*
measurementKind: Kb (nM)
Quick reminder: number only, in nM, skip the unit.

CC(C)Oc1ccc(C[C@@H]2NC(=O)CC3(CCCCC3)SSC[C@@H](C(=O)N3CCC[C@H]3C(=O)N[C@@H](CCCN=C(N)N)C(=O)NCC(N)=O)NC(=O)[C@H](CC(N)=O)NC(=O)[C@H](C(C)C)NC(=O)[C@H](Cc3ccccc3)NC2=O)cc1 (Y(iPr)FVNCPRG-NH2; linker N-5 via X1) has a reported Kb of 47.9

CCCOc1ccc(C[C@@H]2NC(=O)CC3(CCCCC3)SSC[C@@H](C(=O)N3CCC[C@H]3C(=O)N[C@H](CCCN=C(N)N)C(=O)NCC(N)=O)NC(=O)[C@H](CC(N)=O)NC(=O)[C@H](C(C)C)NC(=O)[C@H](Cc3ccccc3)NC2=O)cc1 has a reported Kb of 214

COc1ccc(C[C@@H]2NC(=O)CC3(CCCCC3)SSC[C@@H](C(=O)N3CCC[C@H]3C(=O)N[C@@H](CCCN=C(N)N)C(=O)NCC(N)=O)NC(=O)[C@H](CC(N)=O)NC(=O)[C@H](C(C)C)NC(=O)[C@H](Cc3ccccc3)NC2=O)cc1 (Y(Me)FVNCPRG-NH2; linker N-5 via X1) has a reported Kb of 44.7

CCOc1ccc(C[C@@H]2NC(=O)CC3(CCCCC3)SSC[C@@H](C(=O)N3CCC[C@H]3C(=O)N[C@H](CCCN=C(N)N)C(=O)NCC(N)=O)NC(=O)[C@H](CC(N)=O)NC(=O)[C@H](C(C)C)NC(=O)[C@H](Cc3ccccc3)NC2=O)cc1 (Y(Et)FVNCP[dR]G-NH2; linker N-5 via X1) has a reported Kb of 79.4

* * *

# methodNotes: In vivo antidiuretic antagonistic activity expressed as negative logarithm of the effective dose divided by the estimated volume of distribution (67 mL/kg).
# Type: ADME, organism-based
# experimentalContext: Urine; read-out: pA2 (converted)
Starred links: 1 amine or outer side, 2 acyl side, 3 side chain; linkers in the order of their positions; H or OH if unused. Positions of bridges follow the written chain, without caps; N, C: chain ends. Non-standard residues stand in square brackets, D forms with d. Residues, ends and D or L forms follow the SMILES beside them. *: point of attachment. X1 = O=C(CC1(S[*:2])CCCCC1)[*:1]; iPr = CC(C)*
measurementKind: Kb
# answer = value followed by unit

CC(C)Oc1ccc(C[C@@H]2NC(=O)CC3(CCCCC3)SSC[C@@H](C(=O)N3CCC[C@H]3C(=O)N[C@H](CCCN=C(N)N)C(=O)NCC(N)=O)NC(=O)[C@H](CC(N)=O)NC(=O)[C@H](C(C)C)NC(=O)[C@H](Cc3ccccc3)NC2=O)cc1 (Y(iPr)FVNCP[dR]G-NH2; linker N-5 via X1) has a reported Kb of 0.132 µM

COc1ccc(C[C@@H]2NC(=O)CC3(CCCCC3)SSC[C@@H](C(=O)N3CCC[C@H]3C(=O)N[C@H](CCCN=C(N)N)C(=O)NCC(N)=O)NC(=O)[C@H](CC(N)=O)NC(=O)[C@H](C(C)C)NC(=O)[C@H](Cc3ccccc3)NC2=O)cc1 (Y(Me)FVNCP[dR]G-NH2; linker N-5 via X1) has a reported Kb of 0.209 µM

CCCOc1ccc(C[C@@H]2NC(=O)CC3(CCCCC3)SSC[C@@H](C(=O)N3CCC[C@H]3C(=O)N[C@@H](CCCN=C(N)N)C(=O)NCC(N)=O)NC(=O)[C@H](CC(N)=O)NC(=O)[C@H](C(C)C)NC(=O)[C@H](Cc3ccccc3)NC2=O)cc1 has a reported Kb of 0.0513 µM

CCOc1ccc(C[C@@H]2NC(=O)CC3(CCCCC3)SSC[C@@H](C(=O)N3CCC[C@H]3C(=O)N[C@@H](CCCN=C(N)N)C(=O)NCC(N)=O)NC(=O)[C@H](CC(N)=O)NC(=O)[C@H](C(C)C)NC(=O)[C@H](Cc3ccccc3)NC2=O)cc1 (Y(Et)FVNCPRG-NH2; linker N-5 via X1) has a reported Kb of 0.0269 µM
